Each record here notes measured IC50.
Molecular target: Folylpolyglutamate synthase, mitochondrial (Homo sapiens)
Sequence (Q05932 whole entry): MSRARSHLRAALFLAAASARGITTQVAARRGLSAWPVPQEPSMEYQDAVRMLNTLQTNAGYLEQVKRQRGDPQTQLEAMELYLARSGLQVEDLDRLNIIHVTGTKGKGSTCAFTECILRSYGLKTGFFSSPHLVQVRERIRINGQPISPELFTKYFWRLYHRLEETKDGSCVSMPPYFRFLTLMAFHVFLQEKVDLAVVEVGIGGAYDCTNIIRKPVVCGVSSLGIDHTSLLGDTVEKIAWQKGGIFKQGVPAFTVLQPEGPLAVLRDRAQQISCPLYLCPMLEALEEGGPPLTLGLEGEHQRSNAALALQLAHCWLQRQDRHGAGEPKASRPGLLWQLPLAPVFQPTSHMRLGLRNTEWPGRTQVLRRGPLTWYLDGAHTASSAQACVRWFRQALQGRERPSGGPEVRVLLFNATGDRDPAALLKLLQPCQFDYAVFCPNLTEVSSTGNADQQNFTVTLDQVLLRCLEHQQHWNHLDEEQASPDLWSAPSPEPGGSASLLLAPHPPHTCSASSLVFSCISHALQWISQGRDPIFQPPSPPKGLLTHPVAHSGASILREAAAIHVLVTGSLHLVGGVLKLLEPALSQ
Assay: Compound was evaluated for the inhibitory activity against Folyl-polyglutamate synthase from CCRF-CEM human leukemia cells.
Type: cell-based

The compound CN(Cc1cnc2nc(N)nc(N)c2n1)c1ccc(C(=O)NC(Cc2cn(CC(=O)O)cn2)C(=O)O)cc1 (centres undefined) showed IC50 equal to > 200 µM

The compound Nc1nc2ncc(CNc3ccc(C(=O)NC(Cc4cnc[nH]4)C(=O)O)cc3)nc2c(=O)[nH]1 (centres undefined) showed IC50 equal to > 200 µM

The compound CN(Cc1cnc2nc(N)nc(N)c2n1)c1ccc(C(=O)N[C@@H](CCC(=O)O)C(=O)O)cc1 [METHOTREXATE] showed IC50 equal to 3.2 µM

The compound CN(Cc1cnc2nc(N)nc(N)c2n1)c1ccc(C(=O)NC(Cc2cnc[nH]2)C(=O)O)cc1 (centres undefined) showed IC50 equal to > 200 µM

* * *

Each record here notes measured pIC50.
biological target: Dihydrofolate reductase (Mus musculus); test: compound was evaluated for the inhibitory activity against Dihydrofolate reductase in permeabilised L1210 cells.
Sequence (P00375 whole entry): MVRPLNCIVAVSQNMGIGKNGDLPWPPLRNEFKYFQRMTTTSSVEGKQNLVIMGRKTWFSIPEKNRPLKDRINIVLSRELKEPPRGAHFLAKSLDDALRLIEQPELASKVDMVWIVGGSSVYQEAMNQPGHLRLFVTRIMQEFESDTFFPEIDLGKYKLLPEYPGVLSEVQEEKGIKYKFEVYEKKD
Quick note: pIC50 values are minus log10 of concentrations in mol/L.

| compound | readoutName | experimentalValue |
| --- | --- | --- |
| CN(Cc1cnc2nc(N)nc(N)c2n1)c1ccc(C(=O)NC(Cc2cn(CC(=O)O)cn2)C(=O)O)cc1 (stereo not drawn) | pIC50 | 6.43 |

Turning now to a further compound:
Considering CN(Cc1cnc2nc(N)nc(N)c2n1)c1ccc(C(=O)NC(Cc2cnc[nH]2)C(=O)O)cc1 (stereo not drawn) , its pIC50 with Dihydrofolate reductase (Mus musculus) was recorded as 5.89
